Below, each of the binders is paired with its reported OD 450 nm at 80 ng/ml antibody value.
- testSystem: T1, ICAM-1 protein antigen (R&D System) (human, UniProt P05362 28-480)
- T1 construct: The assay paragraphs say only 'ICAM-1 (R&D System)'; also called antigen ICAM-1; ICAM-1 antigen
- T1 sequence (P05362 28-480 limits assumed): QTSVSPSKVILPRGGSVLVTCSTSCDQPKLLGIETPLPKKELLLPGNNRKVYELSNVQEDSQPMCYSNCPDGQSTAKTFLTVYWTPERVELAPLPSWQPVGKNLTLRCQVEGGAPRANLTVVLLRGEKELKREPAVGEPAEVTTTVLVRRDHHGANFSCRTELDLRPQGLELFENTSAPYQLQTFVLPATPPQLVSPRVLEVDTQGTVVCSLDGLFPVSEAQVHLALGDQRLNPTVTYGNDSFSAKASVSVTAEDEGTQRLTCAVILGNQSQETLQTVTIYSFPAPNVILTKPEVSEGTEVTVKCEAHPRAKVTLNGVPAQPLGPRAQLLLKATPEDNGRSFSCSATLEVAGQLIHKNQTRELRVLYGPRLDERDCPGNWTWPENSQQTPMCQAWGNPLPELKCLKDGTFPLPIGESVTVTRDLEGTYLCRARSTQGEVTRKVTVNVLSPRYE
- measurementDescription: ELISA, ICAM-1 coated 100 ng/well, anti-human Ig-HRP

Recorded OD 450 nm at 80 ng/ml antibody, per entry:
chimeric anti-ICAM-1 antibody SI9 (mouse SI9 variable regions, human IgG4/kappa constant regions) (antibody, the hinge lies in the heavy chain; also called chimeric antibody SI9; SI9 Chimeric; not shown: human IgG4 heavy chain constant region, GenBank AIC59040.1 (printed), hinge 'CPSCP' modified to 'CPPCP' (position not pr); human kappa light chain constant region, GenBank AAA58989.1 (printed)) heavy: QVQLQQSGAELVRPGVSVKISCKGSGYTFTDYALHWVKQSHAKSLEWIGVISTYSGNTDYNQKFRGKATMTVDKSSTTAYLELARLTSEDSAIHYCARSLYFGSSGFDYWGQGTALTVSS light: DVVLTQTPLSLPVNLGDQASISCRSSQTLVYRNGNTYLHWYLQKAGQSPKLLIYKVSNRFSGVPDRFSGSGSGTDFTLKISRVEAEDLGVYFCSQNTHFPYTFGGGTKIKR    1.14 OD (450 nm)
humanized anti-ICAM-1 antibody H5L3 (VH5 + VL3), human IgG4/kappa (antibody, V domains shown, The Arg at the VL/CL junction is in neither entry) VH: QVQLVQSGAEVKKPGASVKISCKASGYTFTDYALHWVRQAPGQRLEWMGVISTYSGNTDYNQKFRGRVTITVDKSATTAYMELSSLRSEDTAVYYCARSLYFGSSGFDYWGQGTALTVSS VL: DVVLTQTPLSSPVTLGQPASISCRSSQTLVYRNGNTYLHWYLQRAGQPPRLLIYKVSNRFSGVPDRFSGSGAGTDFTLKISRVEAEDVGVYFCSQNTHFPYTFGGGTKLEIKT    1.25 OD (450 nm)
humanized anti-ICAM-1 antibody H17L3 (VH17 + VL3), human IgG4/kappa (antibody, V domains shown, The Arg at the VL/CL junction is in neither entry) VH: QVQLVQSGAEVKKPGASVKISCKGSGYTFTDYALHWVRQAPGQRLEWMGVISTYSGNTDYNQKFRGRATITVDTSASTAYMELSSLRSEDTAVYYCARSLYFGSSGFDYWGQGTALTVSS VL: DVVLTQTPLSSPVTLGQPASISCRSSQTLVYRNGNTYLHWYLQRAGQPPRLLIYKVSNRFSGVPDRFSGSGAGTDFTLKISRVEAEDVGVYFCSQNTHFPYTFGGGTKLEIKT    1.2 OD (450 nm)
humanized anti-ICAM-1 antibody H17L1 (VH17 + VL1), human IgG4/kappa (antibody, V domains shown) VH: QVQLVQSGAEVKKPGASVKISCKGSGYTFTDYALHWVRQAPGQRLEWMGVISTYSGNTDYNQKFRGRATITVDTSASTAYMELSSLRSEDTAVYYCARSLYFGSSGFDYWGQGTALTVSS VL: DVVLTQSPLSLPVTLGQPASISCRSSQTLVYRNGNTYLHWYQQRPGQSPRLLIYKVSNRFSGVPDRFSGSGSGTDFTLKISRVEAEDVGVYFCSQNTHFPYTFGGGTKLEIKT    1.11 OD (450 nm)

Ask | Could you please provide reported OD 450 nm at 80 ng/ml antibody for humanized anti-ICAM-1 antibody H17L4 (VH17 + VL4), human IgG4/kappa (antibody, V domains shown, The Arg at the VL/CL junction is in neither entry; also called DNP007; DNP007 antibody (H17L4 antibody)) VH: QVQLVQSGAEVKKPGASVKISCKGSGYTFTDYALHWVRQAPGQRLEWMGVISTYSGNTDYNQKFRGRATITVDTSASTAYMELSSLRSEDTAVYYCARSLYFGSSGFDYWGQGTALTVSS VL: DVVLTQTPLSSPVTLGQPASISCRSSQTLVYRNGNTYLHWYQQRPGQPPRLLIYKVSNRFSGVPDRFSGSGAGTDFTLKISRVEAEDVGVYFCSQNTHFPYTFGGGTKLEIKT ? Thanks!
Reply | 1.24 OD (450 nm)

Ask | Return value of OD 450 nm at 80 ng/ml antibody for input humanized anti-ICAM-1 antibody H4L3 (VH4 + VL3), human IgG4/kappa (antibody, V domains shown, The Arg at the VL/CL junction is in neither entry) VH: QVQLVQSGAEVKKPGASVKVSCKASGYTFTDYALHWVRQAPGQRLEWIGVISTYSGNTDYNQKFRGRVTMTRDTSATTAYLELSSLRSEDTAVYYCARSLYFGSSGFDYWGQGTALTVSS VL: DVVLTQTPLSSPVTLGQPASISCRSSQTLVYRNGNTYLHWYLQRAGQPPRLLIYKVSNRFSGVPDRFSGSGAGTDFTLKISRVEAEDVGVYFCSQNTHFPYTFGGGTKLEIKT , no commentary.
Reply | 1.23 OD (450 nm)
